- experimental details: Volume of distribution at steady state in rat at 3 mg/kg, iv and 10 mg/kg, po
- Format: ADME, organism-based
- test settings: in vivo, read-out: Vdss
measurement type: Vd (L/kg)

>>> test_result("Cc1ccc(NC(=O)c2cccc(C(F)(F)F)c2)cc1C(=O)Nc1cccnc1")
1
>>> test_result("Cc1ncc(NC(=O)c2cc(NC(=O)c3cccc(C(F)(F)F)c3)ccc2Cl)s1")
1.1
>>> test_result("Cc1cccc(C(=O)Nc2ccc(Cl)c(C(=O)Nc3cccnc3)c2)c1")
1.3
>>> test_result("O=C(Nc1ccc(Cl)c(C(=O)Nc2cncs2)c1)c1cccc(Cl)c1")
1.8
>>> test_result("Cc1cc(C)cc(C(=O)Nc2ccc(Cl)c(C(=O)Nc3cnc(C)s3)c2)c1")
1.2

a: O=C(Nc1ccc(Cl)c(C(=O)Nc2cncs2)c1)c1cccc(C(F)(F)F)c1
b: Cc1ncc(NC(=O)c2cc(NC(=O)c3cccc(Cl)c3)ccc2Cl)s1
c: CC(C)c1ncc(NC(=O)c2cc(NC(=O)c3cccc(C(F)(F)F)c3)ccc2Cl)s1
Prompt: Ranking field: Vd; order: falling. Give the labels in the order specified.
Completion: a, c, b
